Tested on: HepG2
methodSummary: cytotoxicity call (relative viability < 0.9)
settings: 10 µM
Out of some 39,000 compounds screened, about 3,300 (8.5%) were called active. What follows is part of a selection rich in actives, with near analogues and random picks from the rest.
Labels: true (1) = active, false (0) = inactive

compoundstructurestring=C[C@@H]1CN([C@H](C)CO)C(=O)Cc2cc(NC(=O)Cc3cn(C)c4ccccc34)ccc2O[C@@H]1CN(C)S(=O)(=O)c1cn(C)cn1 labelclass="false (0)"
compoundstructurestring=C[C@@H]1CN([C@@H](C)CO)C(=O)c2cc(NS(=O)(=O)c3ccc(Cl)cc3)ccc2O[C@@H](C)CCCCO[C@H]1CN(C)C(=O)c1ccccc1 labelclass="false (0)"
compoundstructurestring=O=C(N[C@@H](c1ccccc1)c1ccc2ccccc2n1)C1CCN(Cc2ccc(Oc3ccccc3)cc2)CC1 labelclass="false (0)"
compoundstructurestring=COc1ccc(S(=O)(=O)N(C)C[C@H]2Oc3c(NC(=O)Nc4c(C)noc4C)cccc3C(=O)N([C@H](C)CO)C[C@@H]2C)cc1 labelclass="false (0)"
compoundstructurestring=COc1cc(OC)nc([C@@H](NC(=O)C2CCN(Cc3ccc(Oc4ccccc4)cc3)CC2)c2ccccc2C)n1 labelclass="true (1)"
compoundstructurestring=COc1ccc(C(N)=S)cn1 labelclass="false (0)"
compoundstructurestring=Cc1noc(C)c1S(=O)(=O)N(C)C[C@H]1Oc2ccc(NS(C)(=O)=O)cc2CC(=O)N([C@@H](C)CO)C[C@@H]1C labelclass="false (0)"
compoundstructurestring=C[C@@H]1CN([C@H](C)CO)C(=O)Cc2cc(NC(=O)Cn3cnnn3)ccc2O[C@H]1CN(C)C(=O)NC1CCCCC1 labelclass="false (0)"
compoundstructurestring=O=C(C[C@H]1C[C@@H]2c3cc(NC(=O)C4CCOCC4)ccc3O[C@@H]2[C@@H](CO)O1)NCCN1CCCCC1 labelclass="false (0)"
compoundstructurestring=COc1ccc(C(=O)NCC#N)cc1 labelclass="false (0)"
compoundstructurestring=COc1ccc(S(=O)(=O)N(C)C[C@@H]2Oc3ccc(NC(=O)CCCN(C)C)cc3CC(=O)N([C@H](C)CO)C[C@@H]2C)cc1 labelclass="false (0)"
compoundstructurestring=C[C@@H]1CN([C@@H](C)CO)S(=O)(=O)c2ccc(C#C[C@@H](C)O)cc2O[C@H]1CN(C)C(=O)CN(C)C labelclass="false (0)"
compoundstructurestring=O=C(CN1CCOCC1)NCC[C@@H]1CC[C@@H](NC(=O)c2ccc3c(c2)OCO3)[C@H](CO)O1 labelclass="false (0)"
compoundstructurestring=Cc1noc(C)c1NC(=O)Nc1ccc2c(c1)CC(=O)N([C@H](C)CO)C[C@@H](C)[C@@H](CN(C)Cc1ccc(C(=O)Nc3ccccc3N)cc1)O2 labelclass="false (0)"
compoundstructurestring=C[C@@H]1CN([C@@H](C)CO)S(=O)(=O)c2ccc(C#Cc3ccc(F)cc3)cc2O[C@@H]1CN(C)S(=O)(=O)c1ccc(F)cc1 labelclass="false (0)"
compoundstructurestring=Cc1noc(C)c1C(=O)OCC(=O)NC1CC1 labelclass="false (0)"

###

System: HepG2
methodSummary: cytotoxicity call (relative viability < 0.9)
settings: 10 µM
The whole screen tested about 39,000 compounds, of which about 3,300 (8.5%) were called active. Only a selection was taken, and actives are over-represented in it overall.
readoutKind: cytotoxicity call

compoundstructurestring=COC1=C(CC=C(C)C)C(=O)c2ccccc2C1=O obsvalue=active
compoundstructurestring=Cc1noc(C)c1S(=O)(=O)N(C)C[C@@H]1OCCCC[C@@H](C)Oc2ccc(NC(=O)Nc3ccccc3)cc2C(=O)N([C@H](C)CO)C[C@@H]1C obsvalue=inactive
compoundstructurestring=COc1ccc(NC(=O)N(C)C[C@H]2Oc3ccc(NS(C)(=O)=O)cc3CC(=O)N([C@H](C)CO)C[C@H]2C)cc1 obsvalue=inactive
compoundstructurestring=C=CCC[C@H](Cc1ccc(F)cc1)C(=O)OC[C@H](Cc1c[nH]c2ccccc12)NC(=O)[C@H](CC=C)CC(=O)N(CCO)Cc1ccccc1 obsvalue=inactive
compoundstructurestring=CCCCC(=O)OCC(=O)[C@]1(O)Cc2c(O)c3c(c(O)c2[C@@H](O[C@H]2C[C@H](NC(=O)C(F)(F)F)[C@H](O)[C@H](C)O2)C1)C(=O)c1c(OC)cccc1C3=O obsvalue=active
compoundstructurestring=CC(C)=CCCC(C)=CCC1=C(C)C(=O)c2ccccc2C1=O obsvalue=inactive
compoundstructurestring=O=C(CN1C(=O)c2cccc3cccc(c23)C1=O)N1CCN(CCN2C(=O)[C@@H]3[C@@H](C2=O)[C@@H]2C=C[C@@H]3C2)CC1 obsvalue=inactive
compoundstructurestring=C[C@@H]1CCCCO[C@H](CN(C)S(=O)(=O)c2ccccc2)[C@@H](C)CN([C@@H](C)CO)C(=O)c2cc(NS(=O)(=O)c3cn(C)cn3)ccc2O1 obsvalue=inactive
compoundstructurestring=COc1cccc2c1C(=O)c1c(O)c3c(c(O)c1C2=O)C[C@@](O)(C(=O)CO)C[C@@H]3O[C@H]1C[C@H](N)[C@H](O)[C@H](C)O1 obsvalue=active
compoundstructurestring=Cc1noc(C)c1S(=O)(=O)Nc1ccc2c(c1)C(=O)N([C@@H](C)CO)C[C@H](C)[C@@H](CN(C)C(=O)Nc1ccccc1)O2 obsvalue=inactive
compoundstructurestring=O=C(C[C@@H]1CC[C@@H]2[C@H](COC[C@H](O)CN2C(=O)Nc2ccc(Cl)cc2)O1)NCCc1ccncc1 obsvalue=inactive
compoundstructurestring=C=CCC[C@@H](Cc1ccc(F)cc1)C(=O)OC[C@@H](Cc1c[nH]c2ccccc12)NC(=O)[C@H](CC=C)CC(=O)N(CCO)Cc1ccccc1 obsvalue=active
compoundstructurestring=CCO[C@@H]1OC(C(=O)N2CCN(Cc3ccc4c(c3)OCO4)CC2)=C[C@H](C)[C@H]1CCCOC(=O)NCCCCCC(=O)NO obsvalue=inactive
compoundstructurestring=C[C@H](CO)N1C[C@H](C)[C@@H](CN(C)S(=O)(=O)c2ccc(Cl)cc2)Oc2ccc(N(C)C)cc2CC1=O obsvalue=inactive

###

System: HepG2
methodSummary: cytotoxicity call (relative viability < 0.9)
settings: 10 µM
Out of some 39,000 compounds screened, about 3,300 (8.5%) were called active. Many of the other results were omitted from the sample, so actives are more common in it than they were.
readoutKind: cytotoxicity call

compoundstructurestring=COc1ccc(CN(C)C[C@H]2OCCCC[C@H](C)Oc3ccc(NC(=O)Nc4ccc(F)cc4)cc3C(=O)N([C@H](C)CO)C[C@H]2C)cc1 obsvalue=active
compoundstructurestring=COc1ccc(CN(C)C[C@H]2OCCCC[C@H](C)Oc3ccc(NC(=O)Nc4ccc(F)cc4)cc3C(=O)N([C@@H](C)CO)C[C@H]2C)cc1 obsvalue=active
compoundstructurestring=COc1ccc(CN(C)C[C@H]2OCCCC[C@H](C)Oc3ccc(NS(=O)(=O)c4ccc(F)cc4)cc3C(=O)N([C@H](C)CO)C[C@@H]2C)cc1 obsvalue=inactive
compoundstructurestring=Cc1ccc(S(=O)(=O)Nc2ccc3c(c2)C(=O)N([C@@H](C)CO)C[C@H](C)[C@H](CN(C)Cc2ccc4c(c2)OCO4)OCCCC[C@@H](C)O3)cc1 obsvalue=inactive
compoundstructurestring=COCC(=O)NC1CCN(C2CCNCC2)CC1 obsvalue=inactive
compoundstructurestring=C[C@@H]1CN([C@@H](C)CO)C(=O)c2cc(C#CCc3ccccc3)cnc2O[C@@H]1CN(C)CC1CCOCC1 obsvalue=inactive
compoundstructurestring=C[C@@H]1CN([C@@H](C)CO)C(=O)c2cc(NC(=O)Nc3ccc(C(F)(F)F)cc3)ccc2O[C@@H](C)CCCCO[C@H]1CN(C)S(=O)(=O)c1ccc(F)cc1 obsvalue=inactive
compoundstructurestring=COc1ccc(CN(C)C[C@H]2OCCCC[C@@H](C)Oc3ccc(NC(=O)Nc4ccc(F)cc4)cc3C(=O)N([C@@H](C)CO)C[C@@H]2C)cc1 obsvalue=active
compoundstructurestring=C[C@@H]1CCCCO[C@@H](CN(C)S(=O)(=O)c2ccc(F)cc2)[C@@H](C)CN([C@@H](C)CO)C(=O)c2cc(NC(=O)Nc3ccc(C(F)(F)F)cc3)ccc2O1 obsvalue=active
compoundstructurestring=COc1ccc(CN(C)C[C@H]2OCCCC[C@H](C)Oc3ccc(NC(=O)Nc4ccc(F)cc4)cc3C(=O)N([C@@H](C)CO)C[C@@H]2C)cc1 obsvalue=inactive
compoundstructurestring=C[C@@H]1CCCCO[C@@H](CN(C)S(=O)(=O)c2ccc(F)cc2)[C@H](C)CN([C@@H](C)CO)C(=O)c2cc(NC(=O)Nc3ccc(C(F)(F)F)cc3)ccc2O1 obsvalue=inactive
compoundstructurestring=COc1ccc(CN(C)C[C@H]2OCCCC[C@@H](C)Oc3ccc(NC(=O)Nc4ccc(F)cc4)cc3C(=O)N([C@H](C)CO)C[C@H]2C)cc1 obsvalue=active
compoundstructurestring=COc1ccc(CN(C)C[C@H]2OCCCC[C@H](C)Oc3ccc(NC(=O)Nc4ccc(F)cc4)cc3C(=O)N([C@H](C)CO)C[C@@H]2C)cc1 obsvalue=inactive

###

Test system: HepG2
methodSummary: cytotoxicity call (relative viability < 0.9)
settings: 10 µM
Among all 39,000 compounds or so, about 3,300 (8.5%) were called active. What follows is part of a selection rich in actives, with near analogues and random picks from the rest.
Outcome codes: active, inactive

compoundstructurestring=NNc1ccc2[nH]c(=O)[nH]c2c1 labelclass=inactive
compoundstructurestring=Cc1noc(C)c1NC(=O)Nc1ccc2c(c1)C(=O)N([C@H](C)CO)C[C@@H](C)[C@H](CN(C)Cc1ccc(Cl)c(Cl)c1)OCCCC[C@H](C)O2 labelclass=inactive
compoundstructurestring=CNc1[nH]cnc(=S)c1N labelclass=inactive
compoundstructurestring=Cc1noc(C)c1NC(=O)Nc1ccc2c(c1)C(=O)N([C@@H](C)CO)C[C@@H](C)[C@H](CN(C)Cc1ccc(Cl)c(Cl)c1)OCCCC[C@@H](C)O2 labelclass=active
compoundstructurestring=COc1ccc(S(=O)(=O)Nc2ccc3c(c2)C(=O)N([C@H](C)CO)C[C@H](C)[C@@H](CN(C)CC2CCCCC2)OCCCC[C@@H](C)O3)cc1 labelclass=inactive
compoundstructurestring=CC(C)NC(=O)Nc1ccc2c(c1)C(=O)N([C@@H](C)CO)C[C@H](C)[C@@H](CN(C)CC1CCCCC1)OCCCC[C@H](C)O2 labelclass=inactive
compoundstructurestring=CC(=O)O[C@H](C[C@H](O)[C@@](C)(CCC=C(C)C)O[C@H]1O[C@@H](CO)[C@@H](O)[C@@H](O)[C@@H]1O)/C(C)=C/COC[C@@H](O)[C@@H](O)[C@@H](O)[C@@H](O)CO labelclass=inactive
